# Test Method Notes: Tissue bio-distribution and tissue pharmacokinetics of DMA
# Type: in vivo, mouse
# Reported Conditions: Balb/c, mouse, spleen; Oral 100 mg/kg, 16 h; read-out: Tissue DMA concentration, Spleen
# Description: Tissue samples were collected from the same mice from which blood samples were collected in both doses of DMA. […] A standard DMA calibration from 1-1000 ng/ml with internal standard (20 ng/ml) was quantified. […] Peak tissue concentration (Cmax) of DMA and time to reach the Cmax (tmax) were read directly from the raw data by visual examination of mean tissue concentration-time profile. […]
Quantity Kind: concentration at 16 h (ng/g)
Provide the reading as a plain figure in ng/g.

concentration at 16 h for COc1ccc(-c2nc3cc(-c4nc5cc(N6CCN(C)CC6)ccc5[nH]4)ccc3[nH]2)cc1OC [DMA] is 254
